assay: in vivo; conditions: Balb/c, mouse, po, 10 mg/kg
Property: Cmax; scope: individual compounds
Supply the numeric figure in ng/mL, leaving out any unit text.

Below, 6 compounds whose answers are already recorded.
{"COMPOUND": "C[C@H](c1ccc(C(F)(F)F)cc1C(F)(F)F)n1cc(NC(=O)c2nnc(-c3ccccn3)s2)cn1", "ATTRIBUTE_MEASURED": "Cmax", "RECORDED_VALUE": 4560}
{"COMPOUND": "CC(c1ccc(C(F)(F)F)cc1C(F)(F)F)n1cc(NC(=O)c2cc(-c3ccco3)on2)cn1 (single isomer, unassigned) [“Enantiomer A” of Example S6]", "ATTRIBUTE_MEASURED": "Cmax", "RECORDED_VALUE": 579}
{"COMPOUND": "O=C(Nc1cnn(Cc2ccc(C(F)(F)F)cc2C(F)(F)F)c1)c1cc(-c2cnccn2)on1", "ATTRIBUTE_MEASURED": "Cmax", "RECORDED_VALUE": 899}
{"COMPOUND": "C[C@H](c1ccc(C(F)(F)F)cc1C(F)(F)F)n1cc(NC(=O)c2cc(-c3cnccn3)on2)cn1", "ATTRIBUTE_MEASURED": "Cmax", "RECORDED_VALUE": 7030}
{"COMPOUND": "O=C(Nc1cnn(Cc2ccc(C(F)(F)F)cc2C(F)(F)F)c1)c1cc(-c2ccccn2)on1", "ATTRIBUTE_MEASURED": "Cmax", "RECORDED_VALUE": 2270}
{"COMPOUND": "CC(c1ccc(C(F)(F)F)cc1C(F)(F)F)n1cc(NC(=O)c2cc(-c3ccccn3)on2)cn1 (single isomer, unassigned) [“Enantiomer A” of Example S5]", "ATTRIBUTE_MEASURED": "Cmax", "RECORDED_VALUE": 4590}

Lab note: next compound to report on.
// query Name the reported Cmax value associated with the compound C[C@H](c1ccc(C(F)(F)F)cc1C(F)(F)F)n1cc(NC(=O)c2cc(-c3ccccn3)no2)cn1
// result 5180

====

biological target: CYP2C9 (Homo sapiens (Human), UniProt P11712); assay: CYP inhibition in human liver microsomes; details: read-out: CYP-2C9; human liver microsomes; probe substrate diclofenac
Sequence (P11712 whole entry): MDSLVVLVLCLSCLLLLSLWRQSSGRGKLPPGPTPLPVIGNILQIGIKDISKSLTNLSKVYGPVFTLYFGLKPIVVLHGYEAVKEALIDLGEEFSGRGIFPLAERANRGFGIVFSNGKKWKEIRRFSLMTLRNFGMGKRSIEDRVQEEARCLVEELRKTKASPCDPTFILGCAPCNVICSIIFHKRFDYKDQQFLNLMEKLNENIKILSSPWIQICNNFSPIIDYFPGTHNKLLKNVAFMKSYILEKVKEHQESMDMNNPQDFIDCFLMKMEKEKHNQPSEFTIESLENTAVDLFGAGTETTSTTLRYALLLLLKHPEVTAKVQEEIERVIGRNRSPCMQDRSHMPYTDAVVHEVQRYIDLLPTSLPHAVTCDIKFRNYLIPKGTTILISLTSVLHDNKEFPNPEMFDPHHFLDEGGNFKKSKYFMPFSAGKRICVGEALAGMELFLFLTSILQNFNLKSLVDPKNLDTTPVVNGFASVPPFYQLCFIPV
ATTRIBUTE_MEASURED: pIC50
Quick note: pIC50 values are minus log10 of concentrations in mol/L.

{"MOLECULE": "O=C(Nc1cnn(Cc2ccc(C(F)(F)F)cc2C(F)(F)F)c1)c1cc(-c2ccccn2)on1", "MEASURED_TARGET": "CYP2C9 (Homo sapiens (Human), UniProt P11712)", "RECORDED_VALUE": 5.11}
{"MOLECULE": "C[C@H](c1ccc(C(F)(F)F)cc1C(F)(F)F)n1cc(NC(=O)c2nnc(-c3ccccn3)s2)cn1", "MEASURED_TARGET": "CYP2C9 (Homo sapiens (Human), UniProt P11712)", "RECORDED_VALUE": 4.50}
{"MOLECULE": "CC(c1ccc(C(F)(F)F)cc1C(F)(F)F)n1cc(NC(=O)c2cnc(-c3ccccn3)s2)cn1 (stereo not shown)", "MEASURED_TARGET": "CYP2C9 (Homo sapiens (Human), UniProt P11712)", "RECORDED_VALUE": 5.26}

Lab note: next molecule to report on.
// query Name the reported pIC50 value associated with the molecule C[C@H](c1ccc(C(F)(F)F)cc1C(F)(F)F)n1cc(NC(=O)c2cc(-c3ccccn3)no2)cn1
// result 5.22

====

experiment: In vitro microsomal stability, mouse liver microsomes; type: in vitro ADME; details: mouse, mouse liver microsomes, pH 7.4; read-out: T1/2 @ mLM
Property: half-life at […], 1 µM; scope: individual compounds

Below, 3 compounds whose answers are already recorded.
{"COMPOUND": "C[C@H](c1ccc(C(F)(F)F)cc1C(F)(F)F)n1cc(NC(=O)c2cc(-c3ccccn3)no2)cn1", "half-life at […], 1 µM": "1.2 h"}
{"COMPOUND": "CC(c1ccc(C(F)(F)F)cc1C(F)(F)F)n1cc(NC(=O)c2nnc(-c3cnccn3)s2)cn1 (stereo not drawn)", "half-life at […], 1 µM": "1.77 h"}
{"COMPOUND": "Cc1nn([C@@H](C)c2ccc(C(F)(F)F)cc2C(F)(F)F)cc1NC(=O)c1cc(-c2ccccn2)on1", "half-life at […], 1 µM": "0.318 h"}

// query Name the reported half-life at […], 1 µM value associated with the compound O=C(Nc1cnn(Cc2ccc(C(F)(F)F)cc2C(F)(F)F)c1)c1cc(-c2cnccn2)on1
// result 2.75 h

// query Then what about the compound CC(c1ccc(C(F)(F)F)cc1C(F)(F)F)n1cc(NC(=O)c2cc(-c3ccco3)on2)cn1 (stereo not drawn) ?
// result 0.0767 h

// query Then what about the compound Cc1nn([C@H](C)c2ccc(C(F)(F)F)cc2C(F)(F)F)cc1NC(=O)c1cc(-c2ccccn2)on1 ?
// result 0.272 h

// query Then what about the compound CC(c1ccc(C(F)(F)F)cc1C(F)(F)F)n1cc(NC(=O)c2cnc(-c3ccccn3)s2)cn1 (stereo not drawn) ?
// result 1.31 h

// query Then what about the compound C[C@H](c1ccc(C(F)(F)F)cc1C(F)(F)F)n1cc(NC(=O)c2nnc(-c3ccccn3)s2)cn1 ?
// result 3.22 h

====

Property: solubility kinetic at 1 h; scope: individual compounds
assay: Kinetic solubility (nephelometry); type: physicochemical; settings: aqueous buffer, kinetic from dmso stock; PBS pH 7.4, 1% DMSO, 1 hour at 37° C., light scattering at 625 nm
Supply the numeric figure in µM, leaving out any unit text.

{"COMPOUND": "O=C(Nc1cnn(Cc2ccc(C(F)(F)F)cc2C(F)(F)F)c1)c1cc(-c2ccccn2)on1 [Compound 11]", "solubility kinetic at 1 h, µM": 9.41}
{"COMPOUND": "CC(c1ccc(C(F)(F)F)cc1C(F)(F)F)n1cc(NC(=O)c2cc(-c3ccccn3)on2)cn1 (single isomer, unassigned) [“Enantiomer A” of Example S5]", "solubility kinetic at 1 h, µM": 4.68}
{"COMPOUND": "Cc1c(NC(=O)c2cc(-c3ccco3)on2)cnn1Cc1ccc(C(F)(F)F)cc1C(F)(F)F [Compound 93]", "solubility kinetic at 1 h, µM": 2.92}
{"COMPOUND": "C[C@H](c1ccc(C(F)(F)F)cc1C(F)(F)F)n1cc(NC(=O)c2nnc(-c3ccccn3)s2)cn1 [Compound 123]", "solubility kinetic at 1 h, µM": 1.17}
{"COMPOUND": "Cc1c(NC(=O)c2cc(-c3ccccn3)on2)cnn1[C@H](C)c1ccc(C(F)(F)F)cc1C(F)(F)F [Compound 97]", "solubility kinetic at 1 h, µM": 2.92}

// query Name the reported solubility kinetic at 1 h value associated with the compound Cc1nn([C@@H](C)c2ccc(C(F)(F)F)cc2C(F)(F)F)cc1NC(=O)c1cc(-c2ccccn2)on1 [Compound 100]
// result 4.68

// query Then what about the compound O=C(Nc1cnn(Cc2ccc(C(F)(F)F)cc2C(F)(F)F)c1)c1cc(-c2cnccn2)on1 [Compound 114] ?
// result 1.17

====

target: CYP2C19 (Homo sapiens (Human)); assay: CYP inhibition in human liver microsomes
Sequence (P33261 whole entry): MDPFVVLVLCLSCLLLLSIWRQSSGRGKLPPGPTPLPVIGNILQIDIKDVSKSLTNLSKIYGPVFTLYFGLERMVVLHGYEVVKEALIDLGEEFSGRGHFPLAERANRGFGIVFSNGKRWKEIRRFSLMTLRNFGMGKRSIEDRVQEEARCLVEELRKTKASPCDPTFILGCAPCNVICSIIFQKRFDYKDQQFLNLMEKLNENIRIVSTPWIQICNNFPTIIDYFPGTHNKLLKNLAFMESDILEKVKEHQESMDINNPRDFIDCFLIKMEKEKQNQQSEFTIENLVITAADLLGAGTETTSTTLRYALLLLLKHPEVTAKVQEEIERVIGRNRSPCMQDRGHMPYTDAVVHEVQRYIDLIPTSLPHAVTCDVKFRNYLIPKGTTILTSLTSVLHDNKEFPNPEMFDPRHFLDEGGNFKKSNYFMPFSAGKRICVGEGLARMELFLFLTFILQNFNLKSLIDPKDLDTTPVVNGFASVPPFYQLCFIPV
ATTRIBUTE_MEASURED: IC50 (nM)
Supply the numeric figure in nM, leaving out any unit text.

{"COMPOUND": "CC(c1ccc(C(F)(F)F)cc1C(F)(F)F)n1cc(NC(=O)c2cc(-c3ccco3)on2)cn1 (single isomer, unassigned) [“Enantiomer A” of Example S6]", "MEASURE_UNIT": "nM", "IC50": 3540}

Lab note: next compound to report on.
// query Name the reported IC50 value associated with the compound CC(c1ccc(C(F)(F)F)cc1C(F)(F)F)n1cc(NC(=O)c2cc(-c3ccccn3)on2)cn1 (single isomer, unassigned) [“Enantiomer A” of Example S5]
// result 2310

====

assay: In vitro microsomal stability, rat liver microsomes; format: in vitro ADME; details: rat, rat liver microsomes, pH 7.4; read-out: T1/2 @ rLM
ATTRIBUTE_MEASURED: half-life at […], 1 µM

{"COMPOUND": "O=C(Nc1cnn(Cc2ccc(C(F)(F)F)cc2C(F)(F)F)c1)c1cc(-c2cccs2)on1 [Compound 14]", "half-life at […], 1 µM": "4.4 min"}
{"COMPOUND": "C[C@H](c1ccc(C(F)(F)F)cc1C(F)(F)F)n1cc(NC(=O)c2cc(-c3ccccn3)no2)cn1 [Compound 76]", "half-life at […], 1 µM": "39.9 min"}
{"COMPOUND": "Cc1ccc(-c2cc(C(=O)Nc3cnn(Cc4ccc(C(F)(F)F)cc4C(F)(F)F)c3)no2)o1 [Compound 22]", "half-life at […], 1 µM": "6.8 min"}
{"COMPOUND": "C[C@H](c1ccc(C(F)(F)F)cc1C(F)(F)F)n1cc(NC(=O)c2nnc(-c3cnccn3)s2)cn1 [Compound 152]", "half-life at […], 1 µM": "192 min"}
{"COMPOUND": "O=C(Nc1cnn(Cc2ccc(C(F)(F)F)cc2C(F)(F)F)c1)c1cc(-c2ncccn2)on1 [Compound 129]", "half-life at […], 1 µM": "114 min"}

// query Name the reported half-life at […], 1 µM value associated with the compound C[C@H](c1ccc(C(F)(F)F)cc1C(F)(F)F)n1cc(NC(=O)c2nnc(-c3ccccn3)s2)cn1 [Compound 123]
// result 130 min

// query Then what about the compound CC(c1ccc(C(F)(F)F)cc1C(F)(F)F)n1cc(NC(=O)c2cc(-c3ccco3)on2)cn1 (stereo not drawn) [Compound 12] ?
// result 4.8 min

// query Then what about the compound CC(c1ccc(C(F)(F)F)cc1C(F)(F)F)n1cc(NC(=O)c2cnc(-c3ccccn3)s2)cn1 (stereo not drawn) [Compound 78] ?
// result 62.2 min

// query Then what about the compound O=C(Nc1cnn(Cc2ccc(C(F)(F)F)cc2C(F)(F)F)c1)c1cc(-c2cnccn2)on1 [Compound 114] ?
// result 55.4 min
